Numbers sourced from patent US9783505B2.

SYSTEM_NAME: His-PKC-theta (Homo sapiens, UniProt Q04759)
Construct: His; purchased Invitrogen
Sequence (Q04759 whole entry): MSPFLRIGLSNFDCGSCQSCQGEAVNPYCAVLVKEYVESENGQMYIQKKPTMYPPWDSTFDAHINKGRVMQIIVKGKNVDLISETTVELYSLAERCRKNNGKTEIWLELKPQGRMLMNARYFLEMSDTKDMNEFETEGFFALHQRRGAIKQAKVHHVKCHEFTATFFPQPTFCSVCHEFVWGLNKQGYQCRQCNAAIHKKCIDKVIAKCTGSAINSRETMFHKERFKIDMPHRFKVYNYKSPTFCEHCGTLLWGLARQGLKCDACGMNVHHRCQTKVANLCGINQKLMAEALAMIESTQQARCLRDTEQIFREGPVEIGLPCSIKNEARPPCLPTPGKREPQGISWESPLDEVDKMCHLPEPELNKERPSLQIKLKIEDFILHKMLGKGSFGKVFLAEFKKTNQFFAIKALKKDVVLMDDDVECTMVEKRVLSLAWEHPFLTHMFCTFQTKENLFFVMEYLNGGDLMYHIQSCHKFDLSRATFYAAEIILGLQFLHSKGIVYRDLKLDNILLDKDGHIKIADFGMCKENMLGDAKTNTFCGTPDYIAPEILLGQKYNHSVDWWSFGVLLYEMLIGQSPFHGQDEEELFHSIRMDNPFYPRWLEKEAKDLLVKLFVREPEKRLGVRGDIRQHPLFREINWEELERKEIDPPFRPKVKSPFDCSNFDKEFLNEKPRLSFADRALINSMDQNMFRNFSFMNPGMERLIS
PROTOCOL_DESCRIPTION: PKC-theta Assay (384-well time resolved fluorescence, IMAP TR-FRET)
Type: biochemical
EXPERIMENTAL_PARAMETERS: read-out: Act. Level (IC50 in the PKC-theta Assay)
pIC50: −log10 of the molar value.
REPORTED_ENDPOINT: pIC50

Solved entries (count: 5):
COMPOUND | RESULT
CC1(C)C[C@H](Nc2nc(NCCc3ccco3)ncc2C#N)CC[C@@H]1O | 6.10 to 7.00
CC(F)(F)c1ncncc1CNc1ncc(C#N)c(N[C@@H]2CC[C@H](O)C(C)(C)C2)n1 | > 7.00
Cc1nccnc1CCNc1ncc(C#N)c(N[C@H]2CC[C@@H](C(N)=O)CC2)n1 | 5.00 to 5.70
Cc1ccc(CCNc2ncc(C#N)c(N[C@@H]3CC[C@H](O)C(C)(C)C3)n2)o1 | 6.10 to 7.00
Cc1[nH]c2cc(Cl)cc(Cl)c2c1CCNc1ncc(C#N)c(N[C@@H]2CC[C@H](O)C(C)(C)C2)n1 | 6.10 to 7.00

Please state pIC50 for every compound in the list that follows.
1. CC1(C)[C@H](Nc2nc(NCc3cncnc3OCCC(F)(F)F)ncc2C#N)C[C@]1(C)O
2. C[C@]1(O)CC[C@@H](Nc2nc(NCc3cncnc3-c3ccccc3)ncc2C(F)(F)F)CC1

1. > 7.00
2. > 7.00

====

SYSTEM_NAME: His-PKC-theta (Homo sapiens)
Construct: His; purchased Invitrogen
PROTOCOL_DESCRIPTION: PKC-theta Assay (384-well time resolved fluorescence, IMAP TR-FRET)
Format: biochemical
EXPERIMENTAL_PARAMETERS: read-out: Act. Level (IC50 in the PKC-theta Assay)
Answer each item with its documented IC50.

Solved entries (count: 3):
MOLECULE | RESULT
CC1(C)[C@@H](O)C[C@H]1Nc1nc(NCCc2c[nH]c3ncccc23)ncc1C#N | 0.8 to 2 µM
CCc1ncncc1CNc1ncc(C#N)c(N[C@H]2C[C@@H](O)C2(C)C)n1 | 0.1 to 0.8 µM
Cc1cccn1CCNc1ncc(C#N)c(N[C@H]2CC[C@@H](C(N)=O)CC2)n1 | 0.8 to 2 µM

Please state IC50 for every molecule in the list that follows.
1. COC1CC(Nc2nc(NCc3cnccc3C(F)(F)F)ncc2C(F)(F)F)C1(C)C (centres unmarked) [Cmpd 3]
2. CC(F)(F)COc1ncncc1CNc1ncc(C#N)c(N[C@H]2C[C@H](O)C2(C)C)n1
3. CC(F)(F)COc1ncncc1CNc1ncc(C#N)c(N[C@H]2CC[C@@](C)(C(N)=O)CC2)n1

1: < 0.1 µM; 2: 0.1 to 0.8 µM; 3: < 0.1 µM

Please state IC50 for every molecule in the list that follows.
1. CC1(C)[C@@H](CO)C[C@H]1Nc1nc(NCc2c[n+]([O-])ccc2C(F)(F)F)ncc1C(F)(F)F
2. N#Cc1cnc(NCc2cncnc2C(F)(F)F)nc1N[C@H]1CC[C@@H](O)CC1
3. CC1(C)[C@H](O)C[C@@H]1Nc1nc(NCc2cncnc2-c2ccc(F)cc2)ncc1C(F)(F)F
4. N#Cc1cnc(NCCc2c[nH]c3cnccc23)nc1N[C@H]1CC[C@@H](C(N)=O)CC1
5. CC1(C)[C@H](O)C[C@H]1Nc1nc(NCc2c[n+]([O-])ccc2C(F)(F)F)ncc1C(F)(F)F
6. CC(F)(F)COc1ncncc1CNc1ncc(C#N)c(N[C@@H]2CCC[C@@H](O)C2(C)C)n1
7. CC(F)(F)COc1ncncc1CNc1ncc(C#N)c(N[C@H]2CC3(C2)C[C@](C)(O)C3)n1 (some centres unmarked) [Cmpd 295]

1: < 0.1 µM; 2: 0.1 to 0.8 µM; 3: 0.1 to 0.8 µM; 4: 0.1 to 0.8 µM; 5: 0.1 to 0.8 µM; 6: 0.1 to 0.8 µM; 7: 0.1 to 0.8 µM

Please state IC50 for every molecule in the list that follows.
1. CC1(C)C[C@H](Nc2nc(NCc3cncnc3OCC(F)F)ncc2C#N)CC[C@@H]1O
2. Cc1cccc2c1NC(=O)C2CCNc1ncc(C#N)c(N[C@@H]2C[C@H](O)C2(C)C)n1 (some centres unmarked)
3. CN1C(=O)C(CCNc2ncc(C#N)c(N[C@@H]3CC[C@H](O)C(C)(C)C3)n2)c2ccccc21 (some centres unmarked)
4. CC1(C)C[C@H](Nc2nc(NCCc3c[nH]c4cc(OC(F)(F)F)ccc34)ncc2C#N)CC[C@@H]1O

1. < 0.1 µM
2. < 0.1 µM
3. 0.8 to 2 µM
4. 0.1 to 0.8 µM

Please state IC50 for every molecule in the list that follows.
1. CC1(C)C[C@H](Nc2nc(NCCC3C(=O)Nc4ccccc43)ncc2C#N)CC[C@@H]1O (some centres unmarked)
2. CC1(C)[C@@H](Nc2nc(NCc3c[n+]([O-])ccc3C(F)(F)F)ncc2C(F)(F)F)C[C@@H]1O
3. CC1(C)[C@@H](O)C[C@H]1Nc1nc(NCc2c[n+]([O-])ccc2C(F)(F)F)ncc1C(F)(F)F
4. CC1(C)[C@H](CO)C[C@@H]1Nc1nc(NCc2c[n+]([O-])ccc2C(F)(F)F)ncc1C#N

< 0.1 µM
0.1 to 0.8 µM
< 0.1 µM
0.8 to 2 µM

Please state IC50 for every molecule in the list that follows.
1. CC1(C)C[C@H](Nc2nc(NCCc3cnc(C4CC4)nc3)ncc2C#N)CC[C@@H]1O
2. Cn1cc(CCNc2ncc(C#N)c(N[C@@H]3CC[C@H](O)C(C)(C)C3)n2)c2ccccc21
3. CNS(=O)(=O)Cc1ccc2[nH]cc(CCNc3ncc(C#N)c(N[C@@H]4C[C@H](O)C4(C)C)n3)c2c1
4. COc1ccc2c(CCNc3ncc(C#N)c(N[C@@H]4CC[C@H](O)C(C)(C)C4)n3)c[nH]c2c1

2 to 10 µM
< 0.1 µM
2 to 10 µM
< 0.1 µM

Please state IC50 for every molecule in the list that follows.
1. COc1cccc(CCNc2ncc(C#N)c(N[C@@H]3CC(O)C3(C)C)n2)n1 (some centres unmarked)
2. CC1(C)C[C@H](Nc2nc(NCCc3ccc4ccccc4n3)ncc2C#N)CC[C@@H]1O

1: 0.8 to 2 µM; 2: 0.8 to 2 µM

Please state IC50 for every molecule in the list that follows.
1. CCc1ccc2c(c1)C(CCNc1ncc(C#N)c(N[C@@H]3CC[C@H](O)C(C)(C)C3)n1)C(=O)N2 (some centres unmarked)
2. CC1(C)[C@@H](Nc2nc(NCc3cncnc3-c3ccc(F)cc3)ncc2C#N)C[C@@H]1O
3. CC1(C)C[C@H](Nc2nc(NCCc3cnccn3)ncc2C#N)CC[C@@H]1O
4. CC1(C)C[C@H](Nc2nc(NCCn3cncn3)ncc2C#N)CC[C@@H]1O
5. CC1(C)[C@@H](c2nc[nH]n2)C[C@H]1Nc1nc(NCCC2C(=O)Nc3ccccc32)ncc1C#N (some centres unmarked)

["< 0.1 µM", "0.1 to 0.8 µM", "2 to 10 µM", "2 to 10 µM", "< 0.1 µM"]
